Experiment: in vivo
Conditions: female, CB-17 SCID, mouse, tumor, oral, 200 mg/kg, Concentration, individual animals 1-3, tumor, 200 mg/kg QD, 4 h
parameter: concentration at 4 h
Remember to quote the unit after the number.

Task: # get_value(readout='concentration at 4 h', item= CS(=O)(=O)CCNCc1ccc(-c2ccc3ncnc(Nc4ccc(OCc5cccc(F)c5)c(Cl)c4)c3c2)o1 [lapatinib] )
Result: 47400 ng/mL

---

Assay: in vivo
Conditions: female, CB-17 SCID, mouse, BT474 tumor, po, 100 mg/kg, Tmax, single dose
parameter: Tmax (h)
// return numeric value only (unit: h, not printed)

Task: # get_value(readout='Tmax', item= CS(=O)(=O)CCNCc1ccc(-c2ccc3ncnc(Nc4ccc(OCc5cccc(F)c5)c(Cl)c4)c3c2)o1 [lapatinib] )
Result: 12
